Entries and their inhibition at 6 µM
Biological target: human hNET (Homo sapiens)
Construct: expressed in transfected cells; host or cells: MDCK-Net6 cells (MDCK, stably transfected)
Sequence (P23975 whole entry): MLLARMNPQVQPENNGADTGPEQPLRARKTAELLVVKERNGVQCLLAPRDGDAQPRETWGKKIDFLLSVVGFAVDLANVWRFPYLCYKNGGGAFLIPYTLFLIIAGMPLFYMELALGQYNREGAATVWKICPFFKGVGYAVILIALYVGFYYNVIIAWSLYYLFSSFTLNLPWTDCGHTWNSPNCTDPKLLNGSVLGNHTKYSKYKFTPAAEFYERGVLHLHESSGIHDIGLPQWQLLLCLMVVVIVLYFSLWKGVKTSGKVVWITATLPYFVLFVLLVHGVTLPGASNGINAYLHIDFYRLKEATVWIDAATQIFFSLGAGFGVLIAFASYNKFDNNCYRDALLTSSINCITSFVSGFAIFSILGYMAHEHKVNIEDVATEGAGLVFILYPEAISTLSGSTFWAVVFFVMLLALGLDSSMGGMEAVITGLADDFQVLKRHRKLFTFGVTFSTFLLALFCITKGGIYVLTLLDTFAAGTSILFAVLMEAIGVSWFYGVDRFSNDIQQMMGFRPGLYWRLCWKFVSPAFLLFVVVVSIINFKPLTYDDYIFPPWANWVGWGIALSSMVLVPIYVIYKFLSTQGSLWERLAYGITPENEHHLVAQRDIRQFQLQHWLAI
Test: Functional Norepinephrine (NE) Uptake Assay in MDCK-Net6 cells
Assay type: cell-based
Settings: % inhibition of NE uptake @ 6 μM; MDCK-Net6 cells; read-out: hNET IC50 (nM) (% Inhibition)
Where a name gives a salt, the structure may show the parent alone.
Remember to quote the unit after the number.

Below are worked cases with known answers.
- Compound: "CNCC1Oc2cc(F)ccc2C1N1C(=O)C(C)(C)c2ccccc21 (stereo not drawn) [Example 14, hydrochloride]"
  Endpoint result: "54%"
- Compound: "CC(C)NC[C@@H]1Oc2ccccc2[C@H]1N1CC(C)(C)c2cccc(F)c21 [Example 6, hydrochloride]"
  Endpoint result: "30%"
- Compound: "CCNC[C@@H]1Oc2ccccc2[C@H]1N1CC(C)(C)c2cccc(F)c21 [Example 8, hydrochloride]"
  Endpoint result: "42%"
- Compound: "CNC[C@@H]1Oc2ccccc2[C@H]1N1CC(C)(C)c2cccc(F)c21 [Example 5, hydrochloride]"
  Endpoint result: "63%"
- Compound: "CN(C)C[C@@H]1Oc2ccccc2[C@H]1N1CC(C)(C)c2cccc(F)c21 [Example 7, hydrochloride]"
  Endpoint result: "37%"

Next item in the queue.
Q: Note inhibition at 6 µM for the compound shown: CNCC1Oc2ccccc2C1n1ccc2ccccc21 (racemic) [Example 11, hydrochloride]
Result: 42%

###

The reader will find reported pIC50 values listed item by item below.
Biological target: human hNET (Homo sapiens)
Experiment: Functional Norepinephrine (NE) Uptake Assay in MDCK-Net6 cells
Settings: MDCK-Net6 cells stably transfected with hNET; 3H norepinephrine uptake, 16 nM
Structures can show the parent of a compound that is named as a salt.
Bear in mind: pIC50 is minus log10 of a mol/L concentration; give just that figure.

Q: Given CNC[C@@H]1Oc2cc(F)ccc2[C@H]1n1c(=O)n(C(C)C)c2cccc(F)c21 (single isomer, unassigned) [Example 19, hydrochloride] , respond with its pIC50.
Result: 4.91

Q: Name the recorded pIC50 of the compound listed here: CC1(C)CN([C@H]2c3ccccc3O[C@@H]2CN)c2c(F)cccc21 [Example 4, hydrochloride]
Result: 7.02

###

log10 of IC50 listing for selected compounds.
Biological target: UniProt P23975
Experiment: Functional Norepinephrine (NE) Uptake Assay in MDCK-Net6 cells
Conditions: MDCK-Net6 cells stably transfected with hNET; 3H norepinephrine uptake, 16 nM
Counter-ions that a name gives are not always drawn.
# values: log10(IC50), units nM

Q: Supply reported log10 of IC50 belonging to this compound: CNC[C@@H]1Oc2c(F)cccc2[C@H]1N1C(=O)C(C)(C)c2cccc(F)c21 [Example 12, hydrochloride]
Result: 3.01

Q: Please give the documented log10 of IC50 of CNCC1Oc2ccccc2C1N1CCc2ccccc21 (racemic) [Example 10, hydrochloride]
Result: 2.39

Q: State its log10 of IC50 for this compound: CNCC1Oc2ccccc2C1n1ccc2ccccc21 (racemic) [Example 11, hydrochloride]
Result: 2.48

Q: Give reported log10 of IC50 value for CNCC1Oc2ccccc2C1N(C)c1ccccc1 (stereo not shown) [Example 17, hydrochloride]
Result: 3.55

Q: Identify measured log10 of IC50 associated with CNCC1Oc2ccccc2C1N1C(=O)C(C)(C)c2ccccc21 (stereo not shown) [Example 15, hydrochloride]
Result: 3.06

Q: Quote log10 of IC50 reported for CNCC1Oc2cc(F)ccc2C1n1c(=O)n(C(C)C)c2cccc(F)c21 (racemic) [Example 18, hydrochloride] please.
Result: 3.58

Q: Name the recorded log10 of IC50 of the item CCOc1ccccc1O[C@H]1c2ccccc2O[C@@H]1CNC [Example 9, hydrochloride] in your answer.
Result: 2.93

Q: Name the recorded log10 of IC50 of the compound listed here: CNC[C@H]1Oc2ccccc2[C@@H]1N1CC(C)(C)c2cc(F)ccc21 [Example 2, hydrochloride]
Result: 2.54

Q: Recall and state the measured log10 of IC50 for CNCC1Oc2ccccc2C1N1CCCc2ccccc21 (stereo not shown) [Example 16, hydrochloride] .
Result: 2.91

Q: For CNC[C@H]1Oc2ccccc2[C@@H]1N1CC(C)(C)c2cccc(F)c21 [Example 1, hydrochloride] , write its log10 of IC50.
Result: 1.43

Q: Determine its reported log10 of IC50: CNC[C@H]1Oc2cc(F)ccc2[C@@H]1n1c(=O)n(C(C)C)c2cccc(F)c21 (single isomer, unassigned) [Example 20, hydrochloride]
Result: 3.24

Q: Give log10 of IC50 for CNC[C@H]1Oc2ccc(F)cc2[C@@H]1N1CC(C)(C)c2cccc(F)c21 [Example 13, hydrochloride]
Result: 1.95

Q: Answer with the recorded log10 of IC50 of CN(C)C[C@H]1Oc2ccccc2[C@@H]1N1CC(C)(C)c2cccc(F)c21 [Example 3, hydrochloride] only.
Result: 2.50
